# System: SK-N-AS
# EXPERIMENTAL DETAILS: ONCOLINES Profiler proliferation
# Type: cell-based
# MEASUREMENT SETUP: Homo sapiens, neuroblastoma
OBSERVATION TYPE: IC50 (nM)

                                   compound  endpoint_value
0  CN1CCOc2ccc(cc2)C(=O)NCc2ccc(F)c(c2)C(=O)N[C@@H](CC(C)(C)C)C(=O)Nc2ccc(cc2)CCN(C)C(=O)CC(C)(C)CC1=O [Compound 7A]            1720

---

# System: OVCAR-3
# EXPERIMENTAL DETAILS: ONCOLINES Profiler proliferation
# Format: cell-based
# MEASUREMENT SETUP: Homo sapiens; OVCAR-3, ovary adenocarcinoma
OBSERVATION TYPE: IC50 (nM)

>>> df
                                   compound  endpoint_value
0  CN1CCOc2ccc(cc2)C(=O)NCc2ccc(F)c(c2)C(=O)N[C@@H](CC(C)(C)C)C(=O)Nc2ccc(cc2)CCN(C)C(=O)CC(C)(C)CC1=O [Compound 7A]            2400
